The entries that follow carry IC50 values tested on Proto-oncogene tyrosine-protein kinase Src (Homo sapiens, UniProt P12931), drawn from several published reports.

If you can, please state the reported IC50 value of `Cc1noc(C)c1-c1cc2nccc(Nc3ccc4[nH]ccc4c3C)c2o1` .
< 300 nM

Field entry: `CC(C)n1c(C#CC2CCN(C#N)CC2)c(-c2ccc(Oc3ccccc3)cc2)c2c(N)ncnc21`
10 to 1000 nM

Now consider C=CC(=O)N1CCC(C#Cc2c(-c3ccc(Oc4ccccc4)cc3)c3c(N)ncnc3n2[C@H](C)CO)CC1 (single isomer, unassigned) and answer again.
10 to 1000 nM

Please answer likewise for `C=CC(=O)N[C@H]1CC[C@H](C#Cc2c(-c3ccc(Oc4ccccc4)cc3)c3c(N)ncnc3n2C)CC1`
10 to 1000 nM

And for Nc1ncnc2c1c(-c1ccc(Oc3ccccc3)cc1)c(C#CC1CCNCC1)n2C1CCOC1 (stereo not drawn) ?
≤ 10 nM

Would you mind doing `COc1cc(-c2cc3nccc(-c4ccc5[nH]cnc5c4)c3o2)cc(OC)c1OC` as well?
3000 to 50000 nM

Now the molecule `Cn1cc(-c2cnc3[nH]cc(Cc4cc(F)c(OCc5nc6ccccc6[nH]5)cc4Cl)c3c2)cn1`
≤ 10000 nM

Likewise for `O=C(Nc1ccc(Cl)c(NC(=O)c2cnc(Nc3cccnc3)nc2)c1)c1cccc(C(F)(F)F)c1` ?
86 nM

Next molecule up: `COc1cc(Nc2ncnc(Nc3cccc4ccccc34)n2)cc(OC)c1OCCN1CCOCC1`
< 796 nM
